# merged literature set: IC50 with Thymidine phosphorylase (Escherichia coli K-12)
Answers are plain numbers, in µM.

Known IC50 results, listed for orientation:
> print(dat)
                                   compound  measured.property  observed
1                  Oc1nc(O)c(Cl)c(NC2CC2)n1               IC50      10.1
2              OCC1CCN(c2nc(O)nc(O)c2Br)CC1               IC50       5.5
3    S=c1oc(-c2ccc(Cl)cc2)nn1CNc1ccc(Br)cc1               IC50       173
4  O=c1[nH]c(Cn2cnc([N+](=O)[O-])c2)c(Br)c(=O)[nH]1               IC50       6.6

Value sought for every listed compound: IC50.
1. CC1(C)CC[C@H](O)[C@]2(C)[C@H]3CCO[C@]3(C)C[C@@H](O)[C@@H]12
2. Cc1ccc(-c2nn(CNc3cccc(C)c3C)c(=S)o2)cc1

Solution:
1: 72; 2: 23.7

Value sought for every listed compound: IC50.
1. S=c1oc(-c2ccc(Cl)cc2)nn1CNc1ccccc1Cl
2. OCCC1CCN(c2nc(O)nc(O)c2Cl)CC1
3. S=c1oc(-c2ccccc2)nn1CNc1ccccc1Cl
4. OCC1CCCCN1c1nc(O)nc(O)c1Cl (stereo not given)

Solution:
[46.4, 5.5, 118, 4.3]

Value sought for every listed compound: IC50.
1. Oc1nc(O)c(Cl)c(N2CCOCC2)n1
2. OCCC1CCN(c2nc(O)nc(O)c2Br)CC1
3. COc1cc(-c2nn(CNCCc3ccccc3)c(=S)o2)cc(OC)c1OC
4. Cc1ccc(NCn2nc(-c3ccccc3)oc2=S)cc1C
5. S=c1oc(-c2ccccc2Br)nn1CNc1ccccc1Cl

Solution:
[10.4, 6.1, 69.3, 40.6, 21.8]

Value sought for every listed compound: IC50.
1. CC1(C)[C@@H](O)CC[C@]2(C)[C@H]3CCO[C@]3(C)C[C@@H](O)[C@@H]12
2. COc1ccccc1NCn1nc(-c2ccc(Cl)cc2)oc1=S
3. COc1ccc([N+](=O)[O-])cc1NCn1nc(-c2ccc(C)cc2)oc1=S

Solution:
1. 81.4
2. 88.7
3. 14.4

Value sought for every listed compound: IC50.
1. Cc1ccc(-c2nn(CNc3ccc(C)c(C)c3)c(=S)o2)cc1
2. COc1cc(-c2nn(CNc3ccccc3C)c(=S)o2)cc(OC)c1OC
3. Oc1nc(O)c(Br)c(NCCNc2nc(O)nc(O)c2Br)n1
4. S=c1oc(-c2ccccc2Br)nn1CNc1ccc(Br)cc1
5. COc1ccccc1NCn1nc(-c2ccccc2Br)oc1=S
6. OCC1CCCN(c2nc(O)nc(O)c2Cl)C1 (stereo not given)
7. Cc1ccc(NCn2nc(-c3ccc(C)cc3)oc2=S)cc1

Solution:
1. 83.2
2. 117
3. 2.5
4. 26.3
5. 17.6
6. 5.4
7. 54.7
